Target: Bile acid receptor (Homo sapiens)
Assay: qHTS assay to identify small molecule agonists of the farnesoid-X-receptor (FXR) signaling pathway (AID 743220); as to activation: % is scaled to controls: 0 for no effect and ±100 for the full control effect
Conditions: HEK293T FXR-UAS-bla, beta-lactamase FRET ratio, 16 h; series mostly up to 62.6 µM
Records with an inconclusive call do not appear. Calls of active or inactive are those of the source. Calls follow the shape of the dose curve; as a rule, active = well fitted activation curve with a large enough effect in the signal ratio in the repeat runs (not every such curve was filed as active); inconclusive = weak or mixed curves, or effect the other way; inactive = flat fitted curve, though single readings scatter; the % refers to the signal ratio.
Possible outcomes: y (active), n (inactive)

| MOLECULE | LABEL_CLASS |
| --- | --- |
| Cl[Si](Cl)(c1ccccc1)c1ccccc1 | n |
| O[C@@H]([C@H](O)[C@H](O)CBr)[C@H](O)CBr | n |
| C#Cc1ccc(-c2ccccc2F)cc1 | n |
| COc1ccc2cc1Oc1ccc(cc1)C[C@H]1c3c(cc4c(c3Oc3cc5c(cc3OC)CCN(C)[C@@H]5C2)OCO4)CCN1C | n |
| CN(C)c1ccc(C(=C2C=CC(=[N+](C)C)C=C2)c2ccc(N(C)C)cc2)cc1 | n |
| CCOc1ccc2ccccc2c1C(=O)N[C@@H]1C(=O)N2[C@@H]1SC(C)(C)[C@@H]2C(=O)O | n |
| CC(N=C(NC#N)Nc1ccncc1)C(C)(C)C (stereo not drawn) | n |
| O=S(=O)(O)c1ccc(Nc2nc(Nc3ccc(/C=C/c4ccc(Nc5nc(Nc6ccc(S(=O)(=O)O)cc6)nc(N(CCO)CCO)n5)cc4S(=O)(=O)O)c(S(=O)(=O)O)c3)nc(N(CCO)CCO)n2)cc1 | y |

###

Target: Aryl hydrocarbon receptor (Homo sapiens)
Experiment: qHTS assay to identify small molecule that activate the aryl hydrocarbon receptor (AhR) signaling pathway (AID 743085); also: nearly all actives have a fitted effect of over 15% in size;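 as to activation: HG2L7.5c1 human HepG2 liver cells with stably integrated DRE-driven firefly reporter; % is scaled to controls: 0 for no effect and ±100 for the full control effect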
Settings: HepG2 AhR-luc (HG2L7.5c1), luciferase, 24 h; series mostly up to 70.3 µM
Inconclusive results are not listed. Activity calls are given as the source filed them. The call rests on the fitted dose curve; in most records, active means well fitted activation curve with a large enough effect in the repeat runs; inconclusive means weak or mixed curves; inactive means no such curve, though single readings can be large or run the other way.
Possible outcomes: 1 for active, 0 for inactive

| COMPOUND | LABEL_CLASS |
| --- | --- |
| C[C@@H](O)[C@H](N)C(=O)O | 0 |
| COC(=O)c1ccccc1C | 0 |
| CN(C)Cc1ccccc1O | 0 |
| Cc1cc(C(C)(C)C)cc(C)c1CC1=NCCN1 | 0 |
| O=C(c1ccc(O)c(O)c1)c1ccc(O)cc1O | 1 |
| CC1=Nc2ccccc2C1(C)C | 0 |
| CC(C)=CCC1=C(O)c2ccccc2C(=O)C1=O | 1 |
| C#CC1(O)CC[C@H]2[C@@H]3CCC4=CCCC[C@@H]4[C@H]3CC[C@@]21C (some centres not stated) | 0 |
| COC(C)=O | 0 |
| C1CCC(SSC2CCCCC2)CC1 | 0 |
| OC/C=C/CO | 0 |
| O=C(O)CN(CCN(CC(=O)O)CC(=O)O)CC(=O)O | 0 |
| CC(=O)CC(=O)Nc1ccc(S(=O)(=O)O)cc1 | 0 |
| CCCCCc1ccc(Cl)cc1 | 0 |
| CC(C)(C)C1CCC(=O)CC1 | 0 |
| C#C[C@]1(OC(C)=O)CC[C@H]2[C@@H]3CCC4=C/C(=N/O)CC[C@@H]4[C@H]3CC[C@@]21CC | 0 |
| CCO[Si](OCC)(OCC)OCC | 0 |
| c1ccsc1 | 0 |
| Cc1ccc(N/N=c2\c(=O)cc/c(=N\Nc3ccc(S(=O)(=O)O)cc3)c2=O)c(C)c1 | 1 |
| O=C(O)[C@H](O)[C@@H](O)[C@H](O[C@@H]1O[C@H](CO)[C@H](O)[C@H](O)[C@H]1O)[C@H](O)CO | 0 |
| C#C[C@]1(O)CC[C@H]2[C@@H]3[C@H](C)CC4=C(CCC(=O)C4)[C@H]3CC[C@@]21C | 0 |
| NC(=S)NC(N)=S | 0 |
| O=C(O)c1cccc(C(F)(F)F)c1 | 0 |
| CN(C)c1ccc(C(=C2C=CC(=[N+](C)C)C=C2)c2ccc(N(C)C)cc2)cc1 | 1 |
| CC(C)CCCCCOC(=O)CCS | 0 |
| Cc1ccc(O)c(N)c1 | 1 |
| C=CC(=O)OCCOC(=O)C=C | 0 |
| CC(C)NC[C@@H](O)COc1ccc(CC(N)=O)cc1 | 0 |
| CCN(CCN)c1cccc(C)c1 | 0 |
| CC(C)Cn1cnc2c(N)nc3ccccc3c21 | 1 |
| CN1CCN2c3ccccc3Cc3ccccc3C2C1 (configuration not stated) | 0 |
| OC[C@H]1O[C@H](O[C@H]2O[C@H](CO)[C@@H](O)[C@H](O)[C@H]2O)[C@H](O)[C@@H](O)[C@@H]1O | 0 |
| O=[N+]([O-])c1cccc(C(F)(F)F)c1 | 0 |
| C=CC(=O)Nc1cc2c(Nc3ccc(F)c(Cl)c3)ncnc2cc1OCCCN1CCOCC1 | 0 |
| CCCCCCOC(=O)C(C)CC (configuration not stated) | 0 |
| COc1ccc2cc1Oc1ccc(cc1)C[C@H]1c3c(cc4c(c3Oc3cc5c(cc3OC)CCN(C)[C@@H]5C2)OCO4)CCN1C | 0 |
| CCC(CC)(CC(=O)Nc1cccc(/C=C/c2nc(C3CCC3)cs2)c1)C(=O)O | 1 |

###

Test: qHTS assay for small molecule agonists of the antioxidant response element (ARE) signaling pathway (AID 743202); as to activation: % is scaled to controls: 0 for no effect and ±100 for the full control effect
Details: HepG2 ARE-bla reporter, beta-lactamase FRET, 16 h; series mostly up to 73.3 µM
Results filed as inconclusive are left out. Active and inactive are the calls of the source. Calls follow the shape of the dose curve; as a rule, active = well fitted activation curve with a large enough effect in the signal ratio in the repeat runs (not every such curve was filed as active); inconclusive = weak or mixed curves, or effect the other way; inactive = no such curve, though single readings can be large or run the other way; the % refers to the signal ratio.
Possible outcomes: active, inactive

| COMPOUND | LABEL_CLASS |
| --- | --- |
| CCCc1ccc(OCC(=O)N2CCN(C(=O)COc3ccc(CCC)cc3OC)CC2)c(OC)c1 | active |
| Cc1c(C)c2c(c(C)c1OC(=O)c1cccnc1)CC[C@@](C)(CCC[C@H](C)CCC[C@H](C)CCCC(C)C)O2 | inactive |
| Cc1c(C)c([N+](=O)[O-])c(C(C)(C)C)c([N+](=O)[O-])c1C | inactive |
| OC[C@@H](O)[C@@H](O)CO | inactive |
| C#C[C@]1(OC(C)=O)CC[C@H]2[C@@H]3CCC4=C[C@@H](OC(C)=O)CC[C@@H]4[C@H]3CC[C@@]21C | active |
| COc1cc(C)ccc1O | inactive |
| Cc1ccc(-c2ccccc2)cc1 | inactive |
| COc1cccc(OC)c1C(=O)O | inactive |
| O[C@@H]([C@H](O)[C@H](O)CBr)[C@H](O)CBr | inactive |
| CN(C)Cc1cc(C(C)(C)C)c(O)c(C(C)(C)C)c1 | active |
| CC/C=C\CCCCCO | inactive |
| C/C=C/C=C/COC(=O)C(C)C | active |
| Cl[Si](Cl)(c1ccccc1)c1ccccc1 | inactive |
| O=C(O)[C@H](O)[C@@H](O)[C@H](O[C@@H]1O[C@H](CO)[C@H](O)[C@H](O)[C@H]1O)[C@H](O)CO | inactive |
| C[C@H]1NCc2cc(-c3ccc4c(=O)c(C(=O)O)cn(C5CC5)c4c3OC(F)F)ccc21 | inactive |
| CCc1cccc(CC)c1NC(=O)CN(CC(=O)O)CC(=O)O | inactive |
| Cc1cc(C(C)(C)C)cc(C)c1CC1=NCCN1 | inactive |
| OC[C@H]1O[C@H](O[C@H]2O[C@H](CO)[C@@H](O)[C@H](O)[C@H]2O)[C@H](O)[C@@H](O)[C@@H]1O | inactive |
| CC(C)NC[C@@H](O)COc1ccc(CC(N)=O)cc1 | inactive |
| CC(C)(C)c1csc(-c2cc3cc(OCc4ccccc4CC(=O)O)ccc3o2)n1 | active |
| Cc1cc(-n2nc3ccc(Cl)cc3n2)c(O)c(C(C)(C)C)c1 | inactive |
| CCCCC(CC)COC(=O)CCCCC(=O)OCc1ccccc1 (configuration not stated) | inactive |
| CCCCC/C=C\C/C=C\CCCCCCCC(=O)O | active |
| OC/C=C/CO | active |
| CCCCN(CCCC)CC(O)c1cc(Cl)cc2c1-c1ccc(Cl)cc1/C2=C/c1ccc(Cl)cc1 (configuration not stated) | inactive |
| C#Cc1ccc(-c2ccccc2F)cc1 | inactive |
| Cc1cc(C(C)(C)C)c(O)c(C)c1Cn1c(=O)n(Cc2c(C)cc(C(C)(C)C)c(O)c2C)c(=O)n(Cc2c(C)cc(C(C)(C)C)c(O)c2C)c1=O | inactive |
| NC(=S)NC(N)=S | inactive |
| c1ccc(SSc2ccccc2)cc1 | inactive |
| Oc1ccccc1O | active |
| Cc1cc(-c2ccc(N=Nc3cc(S(=O)(=O)O)c4ccccc4c3N)c(C)c2)ccc1N=Nc1cc(S(=O)(=O)O)c2ccccc2c1N | active |
| CN1CCCCC1CCN1c2ccccc2Sc2ccc(S(C)=O)cc21 (configuration not stated) | inactive |
| CCCC(=O)OC(C)(C)Cc1ccccc1 | inactive |
| [Cl][Pt-2]([Cl])([Cl])[Cl] | active |
| CN(C)Cc1ccccc1O | inactive |
| O=[N+]([O-])c1cccc(C(F)(F)F)c1 | inactive |
| CN(C)C(=O)COC(=O)Cc1ccc(OC(=O)c2ccc(N=C(N)N)cc2)cc1 | inactive |

// data source = PubChem BioAssay (Tox21)
